# experiment: Phase 1 multiple ascending dose (MAD) pharmacokinetics with CSF collection in healthy volunteers
# Format: in vivo, human
# assay.context: male, human, plasma, oral, 135 mg, 135 mg daily, fed, Day 1; read-out: Cmax, Observed
test.readout: Cmax
Reply with a number, then the unit it belongs to.

Please fill in: Cmax reported for CC(O)c1ccc(CCOc2ccc(CC3SC(=O)NC3=O)cc2)nc1 (stereo not shown) = 5490 ng/mL

* * *

# experiment: Phase 1 single ascending dose (SAD) pharmacokinetics in healthy volunteers
# Assay type: in vivo, human
# assay.context: male, human, plasma, oral, 90 mg, SAD 90 mg fasted, n = 6; geometric mean
test.readout: AUC(0-t) (ng·h/mL)
Could you give me the number in ng·h/mL? Just the number is fine.

CC(=O)c1ccc(CCOc2ccc(CC3SC(=O)NC3=O)cc2)nc1 (centres unmarked) : 59400

Now let's try a different one.
Please fill in: AUC(0-t) reported for CC(O)c1ccc(CCOc2ccc(CC3SC(=O)NC3=O)cc2)nc1 (centres unmarked) = 117000

* * *

# experiment: Phase 1 multiple ascending dose (MAD) pharmacokinetics with CSF collection in healthy volunteers
# Format: in vivo, human
# assay.context: male, human, CSF and plasma, oral; 135 mg MD Day 8; geometric mean (CV %); read-out: CSF/Plasma
test.readout: Kp at 4 h

CC(=O)c1ccc(CCOc2ccc(CC3SC(=O)NC3=O)cc2)nc1 (centres unmarked) : 0.004

Now let's try a different one.
Please fill in: Kp at 4 h reported for CC(O)c1ccc(CCOc2ccc(CC3SC(=O)NC3=O)cc2)nc1 (centres unmarked) = 0.021

* * *

Measured Tmax values are reported for all entries that follow.
# experiment: Phase 1 multiple ascending dose (MAD) pharmacokinetics with CSF collection in healthy volunteers
# Assay type: in vivo, human
# assay.context: male, human, plasma, oral, 135 mg, 135 mg MD Day 8, n = 8; Median; read-out: Tmax
Could you give me the number in h? Just the number is fine.

CC(=O)c1ccc(CCOc2ccc(CC3SC(=O)NC3=O)cc2)nc1 (centres unmarked) [Compound M3] : 2.75

Please fill in: Tmax reported for CC(O)c1ccc(CCOc2ccc(CC3SC(=O)NC3=O)cc2)nc1 (centres unmarked) [Leriglitazone] = 4

* * *

# experiment: Phase 1 multiple ascending dose (MAD) pharmacokinetics with CSF collection in healthy volunteers
# Type: in vivo, human
# assay.context: male, CSF and plasma (unbound), oral; human, 135 mg; unbound CSF Cmax / unbound plasma Cmax; read-out: Kpu, u based on CSF
test.readout: Kp at 4 h
Form field (numeric): enter value without unit.

Please fill in: Kp at 4 h reported for CC(O)c1ccc(CCOc2ccc(CC3SC(=O)NC3=O)cc2)nc1 (stereo not shown) = 0.55

* * *

# experiment: Phase 1 single ascending dose (SAD) pharmacokinetics in healthy volunteers
# Assay type: in vivo, human
# assay.context: male, human, plasma, oral, 90 mg, SAD 90 mg fasted, n = 6; geometric mean (CV %); read-out: Vz/F
# From the text: […]
test.readout: Vd/F (L)
Could you give me the number in L? Just the number is fine.

Please fill in: Vd/F reported for CC(O)c1ccc(CCOc2ccc(CC3SC(=O)NC3=O)cc2)nc1 (stereo not shown) = 26.1

* * *

# experiment: Biliary clearance in sandwich-cultured hepatocytes
# Type: in vitro ADME
# assay.context: sandwich-cultured hepatocytes
test.readout: microsomal CLint (µL/min/mg)
Could you give me the number in µL/min/mg? Just the number is fine.

Please fill in: microsomal CLint reported for CC(O)c1ccc(CCOc2ccc(CC3SC(=O)NC3=O)cc2)nc1 (stereo not shown) = 0.5

* * *

# experiment: Phase 1 single ascending dose (SAD) pharmacokinetics in healthy volunteers
# Format: in vivo, human
# assay.context: male, human, plasma, oral, 90 mg, single dose 90 mg Fasted; read-out: Tmax, Observed
test.readout: Tmax (min)
Could you give me the number in min? Just the number is fine.

Please fill in: Tmax reported for CC(O)c1ccc(CCOc2ccc(CC3SC(=O)NC3=O)cc2)nc1 (stereo not shown) [Leriglitazone] = 52.8

* * *

# experiment: Phase 1 single ascending dose (SAD) pharmacokinetics in healthy volunteers
# Type: in vivo, human
# assay.context: male, human, plasma, oral, 90 mg, M3 section; SAD 90 mg fasted, n = 6; geometric mean (CV %); read-out: t1/2 (converted)
test.readout: half-life (h)
Could you give me the number in h? Just the number is fine.

Please fill in: half-life reported for CC(=O)c1ccc(CCOc2ccc(CC3SC(=O)NC3=O)cc2)nc1 (stereo not shown) [Compound M3] = 23.2

* * *

# experiment: Phase 1 single ascending dose (SAD) pharmacokinetics in healthy volunteers
# Format: in vivo, human
# assay.context: male, human, plasma, oral, 90 mg, SAD 90 mg Fed; NCA estimate; per kg body weight; read-out: Vss
test.readout: Vd (L/kg)
Could you give me the number in L/kg? Just the number is fine.

Please fill in: Vd reported for CC(O)c1ccc(CCOc2ccc(CC3SC(=O)NC3=O)cc2)nc1 (stereo not shown) = 0.35

* * *

# experiment: Phase 1 single ascending dose (SAD) pharmacokinetics in healthy volunteers
# Type: in vivo, human
# assay.context: male, human, plasma, oral, 270 mg, single dose 270 mg Fed; read-out: Cmax, Observed
test.readout: Cmax (ng/mL)
Could you give me the number in ng/mL? Just the number is fine.

Please fill in: Cmax reported for CC(O)c1ccc(CCOc2ccc(CC3SC(=O)NC3=O)cc2)nc1 (stereo not shown) [Leriglitazone] = 11500

* * *

# experiment: Phase 1 single ascending dose (SAD) pharmacokinetics in healthy volunteers
# Format: in vivo, human
# assay.context: male, human, plasma, oral, 90 mg, SAD 90 mg fed, n = 3; plasma total; geometric mean (CV %); read-out: Cmax
Measured Cmax values are reported for all entries that follow.
Could you give me the number in µg/mL? Just the number is fine.

CC(=O)c1ccc(CCOc2ccc(CC3SC(=O)NC3=O)cc2)nc1 (centres unmarked) [Compound M3] : 1.98

Now let's try a different one.
Please fill in: Cmax reported for CC(O)c1ccc(CCOc2ccc(CC3SC(=O)NC3=O)cc2)nc1 (centres unmarked) [Leriglitazone] = 3.17

* * *

# experiment: Biliary clearance in sandwich-cultured hepatocytes
# Format: in vitro ADME
# assay.context: sandwich-cultured hepatocytes
test.readout: hepatocyte CLint (µL/min/1e6 cells)
Could you give me the number in µL/min/1e6 cells? Just the number is fine.

Please fill in: hepatocyte CLint reported for CC(O)c1ccc(CCOc2ccc(CC3SC(=O)NC3=O)cc2)nc1 (stereo not shown) = 0.358

* * *

# experiment: Single dose neuro-pk study in rats
# Type: in vivo
# assay.context: CSF and plasma (unbound); rat, 17 mg/kg; unbound CSF Cmax / unbound plasma Cmax; read-out: Kpu, u based on CSF
# Description: The ratio of unbound leriglitazone concentration in brain to unbound concentration in plasma (Kpu,u; Cb,u/Cp,u) was calculated dividing the unbound CSF Cmax by the unbound plasma Cmax. Fractions unbound in plasma (fu,p) to obtain the unbound Cmax values were already reported. […] In a single dose neuro-pk study in rats, at the efficacious dose of 17 mg/kg, the unbound brain concentration of leriglitazone was 175 ng/ml similar to the measured CSF concentration of 274 ng/ml (FIG. 7). […]
test.readout: Kp
Form field (numeric): enter value without unit.

Please fill in: Kp reported for CC(O)c1ccc(CCOc2ccc(CC3SC(=O)NC3=O)cc2)nc1 (stereo not shown) = 0.25

* * *

# experiment: Phase 1 single ascending dose (SAD) pharmacokinetics in healthy volunteers
# Type: in vivo, human
# assay.context: male, human, plasma, oral, 30 mg, SAD 30 mg Fasted; NCA estimate; read-out: Vss
test.readout: Vd (L)
Could you give me the number in L? Just the number is fine.

Please fill in: Vd reported for CC(O)c1ccc(CCOc2ccc(CC3SC(=O)NC3=O)cc2)nc1 (stereo not shown) = 23.1

* * *

# experiment: Phase 1 single ascending dose (SAD) pharmacokinetics in healthy volunteers
# Format: in vivo, human
# assay.context: male, human, plasma, oral, 90 mg, SAD 90 mg Fasted; NCA estimate; read-out: Vss
test.readout: Vd (L)
Could you give me the number in L? Just the number is fine.

Please fill in: Vd reported for CC(O)c1ccc(CCOc2ccc(CC3SC(=O)NC3=O)cc2)nc1 (stereo not shown) [Leriglitazone] = 25.2

* * *

# experiment: Phase 1 multiple ascending dose (MAD) pharmacokinetics with CSF collection in healthy volunteers
# Assay type: in vivo, human
# assay.context: male, human, plasma, oral, 135 mg, human, 135 mg; read-out: Total plasma AUC
test.readout: AUC
Reply with a number, then the unit it belongs to.

Please fill in: AUC reported for CC(O)c1ccc(CCOc2ccc(CC3SC(=O)NC3=O)cc2)nc1 (stereo not shown) [Leriglitazone] = 145 µg·h/mL

* * *

# experiment: Phase 1 multiple ascending dose (MAD) pharmacokinetics with CSF collection in healthy volunteers
# Format: in vivo, human
# assay.context: male, human, plasma, oral, 270 mg, 270 mg daily, fed, Day 8; read-out: AUC, Observed
test.readout: AUC (µg·h/mL)
Could you give me the number in µg·h/mL? Just the number is fine.

Please fill in: AUC reported for CC(O)c1ccc(CCOc2ccc(CC3SC(=O)NC3=O)cc2)nc1 (stereo not shown) = 299
